- System: LOX IMVI melanoma
- assay_summary: NCI-60 one-dose screen, 48 h (100 = growth as untreated, 0 = no growth, -100 = all killed)
- test_settings: 10 µM unless noted
About 83,000 compounds went through this panel and 20% of them were active in at least one assay; those are over-represented in the sample as a whole.
Is growth at least 10%? Then True. If not, False.

[[record]]
compound = "CCCCc1n(Cc2ccc3ccccc3n2)cc[n+]1Cc1ccc2ccccc2n1"
tgt = "LOX IMVI melanoma"
qualitative_label = "False"

[[record]]
compound = "COc1ccc(NC(=O)c2ccc(C(F)(F)F)nc2Nc2ccc(Cl)cc2C)cc1Cl"
tgt = "LOX IMVI melanoma"
qualitative_label = "True"

[[record]]
compound = "COc1ccc(C2C=C(c3ccc(Cl)cc3)N=C3SC=CN32)cc1 (stereo unspecified)"
tgt = "LOX IMVI melanoma"
qualitative_label = "True"

[[record]]
compound = "COc1cc(CN2CCO[C@H](COc3cccc(F)c3)C2)ccc1Cl"
tgt = "LOX IMVI melanoma"
qualitative_label = "True"

[[record]]
compound = "O=C(Nc1ccc(Br)cc1)Nc1ccccc1Cl"
tgt = "LOX IMVI melanoma"
qualitative_label = "True"

[[record]]
compound = "NC(N)=N/N=C\\c1ccc(OCc2ccccc2)cc1"
tgt = "LOX IMVI melanoma"
qualitative_label = "True"

[[record]]
compound = "CC1C2CCC(C2)C1COCCOCCO (stereo unspecified)"
tgt = "LOX IMVI melanoma"
qualitative_label = "True"

[[record]]
compound = "O=C1C2=C(C(=O)c3c(O)ccc(O)c31)N(c1ccc(N3CCOCC3)nc1)Cc1ccccc1O2"
tgt = "LOX IMVI melanoma"
qualitative_label = "False"

[[record]]
compound = "O=C(CCc1nc2sc3c(c2c(=O)[nH]1)CCC3)NCc1cn(-c2ccccc2)nc1-c1ccccc1"
tgt = "LOX IMVI melanoma"
qualitative_label = "True"

[[record]]
compound = "Cc1c(C)c(C)c([N+](=O)[O-])c([N+](=O)[O-])c1C"
tgt = "LOX IMVI melanoma"
qualitative_label = "True"

[[record]]
compound = "CC(C)c1ccc(Cn2ccc3c4c(N)nc(NC5CC5)nc4ccc32)cc1"
tgt = "LOX IMVI melanoma"
qualitative_label = "False"

